The molecules listed here are annotated with their Peak current density, % of control value.
Target: T1, Cav3.1 (Homo sapiens, UniProt O43497)
T1 construct: expressed in transfected cells; host or cells: HEK-293, stably transfected
T1 sequence (O43497 whole entry): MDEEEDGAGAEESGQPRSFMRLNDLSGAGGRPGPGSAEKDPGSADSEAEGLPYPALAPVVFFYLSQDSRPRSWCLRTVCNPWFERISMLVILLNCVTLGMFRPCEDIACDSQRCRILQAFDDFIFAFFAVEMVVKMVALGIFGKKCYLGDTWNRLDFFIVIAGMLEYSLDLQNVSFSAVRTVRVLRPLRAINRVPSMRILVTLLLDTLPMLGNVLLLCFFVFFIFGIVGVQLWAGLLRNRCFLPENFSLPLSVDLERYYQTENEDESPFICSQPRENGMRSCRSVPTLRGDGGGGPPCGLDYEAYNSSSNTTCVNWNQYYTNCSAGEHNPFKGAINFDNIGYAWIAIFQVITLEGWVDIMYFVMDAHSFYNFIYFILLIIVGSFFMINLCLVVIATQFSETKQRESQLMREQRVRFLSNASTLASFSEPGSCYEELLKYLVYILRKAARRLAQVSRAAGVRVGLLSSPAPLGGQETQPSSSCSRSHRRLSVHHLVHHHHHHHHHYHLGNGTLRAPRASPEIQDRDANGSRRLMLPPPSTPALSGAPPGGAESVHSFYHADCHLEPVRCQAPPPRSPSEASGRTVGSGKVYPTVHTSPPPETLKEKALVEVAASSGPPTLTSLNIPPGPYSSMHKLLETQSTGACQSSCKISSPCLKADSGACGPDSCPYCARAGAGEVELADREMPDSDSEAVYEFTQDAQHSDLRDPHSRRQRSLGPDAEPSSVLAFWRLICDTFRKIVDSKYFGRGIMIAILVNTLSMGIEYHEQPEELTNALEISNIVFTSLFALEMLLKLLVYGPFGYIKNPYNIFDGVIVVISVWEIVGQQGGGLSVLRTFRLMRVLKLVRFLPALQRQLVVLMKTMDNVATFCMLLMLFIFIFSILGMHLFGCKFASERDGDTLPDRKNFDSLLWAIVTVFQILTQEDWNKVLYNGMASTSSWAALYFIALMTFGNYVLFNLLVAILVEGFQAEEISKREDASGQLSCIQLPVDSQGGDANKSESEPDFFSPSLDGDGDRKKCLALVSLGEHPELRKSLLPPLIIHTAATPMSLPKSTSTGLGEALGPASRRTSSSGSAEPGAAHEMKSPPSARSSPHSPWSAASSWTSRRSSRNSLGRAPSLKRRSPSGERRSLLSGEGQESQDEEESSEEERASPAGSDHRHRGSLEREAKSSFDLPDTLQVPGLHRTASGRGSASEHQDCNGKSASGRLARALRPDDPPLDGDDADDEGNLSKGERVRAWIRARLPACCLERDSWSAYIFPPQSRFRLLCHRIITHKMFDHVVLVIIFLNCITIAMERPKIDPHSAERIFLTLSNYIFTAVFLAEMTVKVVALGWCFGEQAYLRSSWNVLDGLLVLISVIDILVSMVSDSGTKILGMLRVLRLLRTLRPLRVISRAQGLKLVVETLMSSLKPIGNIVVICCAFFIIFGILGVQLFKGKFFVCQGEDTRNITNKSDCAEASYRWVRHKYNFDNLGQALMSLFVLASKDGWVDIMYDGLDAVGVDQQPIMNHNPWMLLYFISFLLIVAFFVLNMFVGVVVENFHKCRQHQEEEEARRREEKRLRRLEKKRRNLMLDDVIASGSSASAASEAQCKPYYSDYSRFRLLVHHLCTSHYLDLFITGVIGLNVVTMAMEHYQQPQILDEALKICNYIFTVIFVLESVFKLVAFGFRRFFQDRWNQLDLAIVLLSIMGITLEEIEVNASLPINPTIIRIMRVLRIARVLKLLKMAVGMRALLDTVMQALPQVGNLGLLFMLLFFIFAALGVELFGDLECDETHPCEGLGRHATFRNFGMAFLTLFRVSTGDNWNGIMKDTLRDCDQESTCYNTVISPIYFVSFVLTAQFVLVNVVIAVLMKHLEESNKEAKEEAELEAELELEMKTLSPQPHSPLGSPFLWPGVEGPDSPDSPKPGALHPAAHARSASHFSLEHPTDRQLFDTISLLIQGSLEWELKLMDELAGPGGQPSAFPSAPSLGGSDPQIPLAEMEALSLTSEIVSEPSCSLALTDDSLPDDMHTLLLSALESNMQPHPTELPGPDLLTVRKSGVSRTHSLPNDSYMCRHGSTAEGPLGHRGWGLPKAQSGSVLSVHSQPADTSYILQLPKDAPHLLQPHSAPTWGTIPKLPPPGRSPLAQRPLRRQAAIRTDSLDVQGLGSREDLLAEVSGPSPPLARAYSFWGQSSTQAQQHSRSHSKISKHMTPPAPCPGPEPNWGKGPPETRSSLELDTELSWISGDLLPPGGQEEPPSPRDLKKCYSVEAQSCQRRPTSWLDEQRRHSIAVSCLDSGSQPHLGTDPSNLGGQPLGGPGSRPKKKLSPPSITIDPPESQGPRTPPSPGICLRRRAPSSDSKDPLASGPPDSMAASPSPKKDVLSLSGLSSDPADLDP
Assay: Whole-cell patch clamp of Cav3.1 dependent LVA calcium current in HEK-293/Cav3.1 cells transiently transfected with γ subunits (Example 1)
Type: cell-based
Details: HEK-293/Cav3.1, normalized to adCGI vector control, mean±S.E.M.

Example entries begin here.
γ7: rat calcium channel γ7 subunit (AF361345), SEQ ID NO:50 (protein, listed as Rattus norvegicus) MSHCSSRALTLLSSVFGACGLLLVGIAVSTDYWLYMEEGTVLPQNQTTEVKMALHAGLWRVCFFAGREKGRCVASEYFLEPEINLVTENTENILKTVRTATPFPMVSLFLVFTAFVISNIGHIRPQRTILAFVSGIFFILSGLSLVVGLVLYISSINDEVMNRPSSSEQYFHYRYGWSFAFAASSFLLKEGAGVMSVYLFTKRYAEEEMYRPHPAFYRPRLSDCSDYSGQFLQPEAWRRGRSPSDISSDVSIQMTQNYPPAIKYPDHLHISTSPC = 99%±8%
γ4: rat calcium channel γ4 subunit (AF361341), SEQ ID NO:47 (protein, listed as Rattus norvegicus) MVRCDRGLQMLLTTAGAFAAFSLMAIAIGTDYWLYSSAHICNGTNLTMDDGPPPRRARGDLTHSGLWRVCCIEGIYKGHCFRINHFPEDNDYDHDSSEYLLRIVRASSVFPILSTILLLLGGLCIGAGRIYSRKNNIVLSAGILFVAAGLSNIIGIIVYISSNTGDPSDKRDEDKKNHYNYGWSFYFGALSFIVAETVGVLAVNIYIEKNKELRFKTKREFLKASSSSPYSRMPSYRYRRRRSRSSSRSTEASPSRDASPVGLKITGAIPMGELSMYTLSREPLKVTTAASYSPDQDAGFLQMHDFFQQDLKEGFHVSMLNRRTTPV = 93%±7%

Then there is this molecule:
Ask: Sample γ6L: rat calcium channel γ6 subunit, long isoform (AF361343), SEQ ID NO:48 (protein, listed as Rattus norvegicus) MMWSNFFMQEEDRRRTAVGRRRAQEQQNLGLTPEREGKIKLGLLVAIVGATLAVLAVGTEFWVELNTYKTNGSAVCEAAHLGLWKVCIKRLWQADVPAGRETCGPAELPGEANCTYFKFFTTGENAHIFQRTTKKEVNLAAAVIAVLGLTAMALGCLCVIMVLSKGAEFLLRLGAVCFGLSGLLLFVSLEVFRHSVRALLQGVNPETPPAPRLAYEYSWSLGCGVGAGLILLLGGVCFLLLTLPSWPWRSLCPKRGGPTA — what was its Peak current density, % of control value?
Reply: 51%±17%
